The measurements presented in this section are drawn from patent US20220041613A1.

Reported pIC50 values are given for each entry in this list.
# TESTED TARGET: HER2 WT (Homo sapiens)
# Construct: endogenous in cells; host or cells: BT474
# PROTOCOL DESCRIPTION: Assay for cell proliferation (CellTiterGlo), Activity for Inhibiting HER2
# Assay type: cell-based
# CONDITION DESCRIPTION: 'about ... or less'; read-out: IC50 value for inhibiting wild-type HER2
pIC50: −log10 of the molar value.

Worked cases, answers included:
[[record]]
molecule = "C=CC(=O)Nc1cc2c(Nc3ccc4c(cnn4Cc4cccc(F)c4)c3)ncnc2cc1C#CC(C)(C)N1CCN(C)CC1"
readout_label = "pIC50"
measurement = "≥ 8.00"

[[record]]
molecule = "C=CC(=O)Nc1cc2c(Nc3ccc4c(cnn4Cc4cccc(F)c4)c3)ncnc2cc1N(C)CCCN1CC2CC1CO2 (centres unmarked)"
readout_label = "pIC50"
measurement = "≥ 7.70"

[[record]]
molecule = "C=CC(=O)Nc1cc2c(Nc3ccc4c(cnn4Cc4cccc(F)c4)c3)ncnc2cc1NCCN1CCOCC1"
readout_label = "pIC50"
measurement = "≥ 8.00"


Query block: // lookup pIC50 for `C=CC(=O)Nc1cc2c(Nc3ccc4c(cnn4Cc4cccc(F)c4)c3)ncnc2cc1OCCN(C)C`
Result block: ≥ 8.22

Query block: Entry `C=CC(=O)Nc1cc2c(Nc3ccc4c(cnn4Cc4cccc(F)c4)c3)ncnc2cc1OCCN1CCCCC1` : reported pIC50 = ?
Result block: ≥ 8.00

----------
# TESTED TARGET: EGFR WT (Homo sapiens, UniProt P00533)
# Construct: endogenous in cells; host or cells: A431 (+H292)
# Sequence (P00533 25-1210): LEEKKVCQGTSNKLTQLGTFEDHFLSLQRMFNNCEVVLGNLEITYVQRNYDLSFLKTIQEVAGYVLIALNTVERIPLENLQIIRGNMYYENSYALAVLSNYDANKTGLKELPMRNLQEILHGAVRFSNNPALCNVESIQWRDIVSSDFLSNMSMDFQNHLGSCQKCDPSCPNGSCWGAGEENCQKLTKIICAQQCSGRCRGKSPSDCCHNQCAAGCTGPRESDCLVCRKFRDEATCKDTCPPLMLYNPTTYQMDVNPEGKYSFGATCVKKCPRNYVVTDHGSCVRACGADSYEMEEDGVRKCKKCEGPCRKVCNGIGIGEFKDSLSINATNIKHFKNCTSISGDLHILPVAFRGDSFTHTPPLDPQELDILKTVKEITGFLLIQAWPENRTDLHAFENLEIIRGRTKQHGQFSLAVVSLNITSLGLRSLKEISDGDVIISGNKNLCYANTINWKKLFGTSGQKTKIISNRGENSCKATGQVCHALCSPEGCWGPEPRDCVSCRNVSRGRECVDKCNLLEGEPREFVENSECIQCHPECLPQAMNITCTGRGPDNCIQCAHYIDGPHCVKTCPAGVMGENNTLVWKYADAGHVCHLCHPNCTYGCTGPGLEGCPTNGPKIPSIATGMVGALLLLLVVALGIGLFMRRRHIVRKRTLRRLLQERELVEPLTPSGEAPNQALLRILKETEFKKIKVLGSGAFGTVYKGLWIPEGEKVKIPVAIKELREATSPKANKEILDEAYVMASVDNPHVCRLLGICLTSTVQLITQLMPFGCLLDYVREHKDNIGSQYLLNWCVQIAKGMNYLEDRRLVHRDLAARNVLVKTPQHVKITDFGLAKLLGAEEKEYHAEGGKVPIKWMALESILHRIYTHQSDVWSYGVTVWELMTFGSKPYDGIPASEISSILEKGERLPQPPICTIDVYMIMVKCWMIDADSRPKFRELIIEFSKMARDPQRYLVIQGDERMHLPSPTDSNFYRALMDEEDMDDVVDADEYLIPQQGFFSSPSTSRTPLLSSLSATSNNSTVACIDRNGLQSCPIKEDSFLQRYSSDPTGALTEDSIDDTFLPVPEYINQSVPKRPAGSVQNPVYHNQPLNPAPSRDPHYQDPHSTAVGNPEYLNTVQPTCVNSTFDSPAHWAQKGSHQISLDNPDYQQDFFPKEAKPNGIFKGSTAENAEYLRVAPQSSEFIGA
# PROTOCOL DESCRIPTION: Assay for cell proliferation (CellTiterGlo), Activity for Inhibiting EGFR
# Format: cell-based
# CONDITION DESCRIPTION: Table A, potency code; 3 days drug
pIC50: −log10 of the molar value.
READOUT LABEL: pIC50

Some compounds with known pIC50 results, for comparison:
[[record]]
compound = "C=CC(=O)Nc1cc2c(Nc3ccc4c(cnn4Cc4cccc(F)c4)c3)ncnc2cc1OCCCN1CC2CC1CO2 (stereo not drawn) [compound 6]"
measurement = "6.70 to 7.00"

[[record]]
compound = "C=CC(=O)Nc1cc2c(Nc3ccc4c(cnn4Cc4cccc(F)c4)c3)ncnc2cc1N(C)CCN(C)C [compound 1]"
measurement = "6.00 to 6.30"


Proceed to the following item.
Query block: Which value of pIC50 has been reported for C=CC(=O)Nc1cc2c(Nc3ccc4c(cnn4Cc4cccc(F)c4)c3)ncnc2cc1OCCN1CCCCC1 [compound 8] in the records?
Result block: 6.70 to 7.00

----------
# TESTED TARGET: EGFR NPH (Homo sapiens, UniProt P00533, INS773NPH)
# Construct: expressed in transfected cells; host or cells: BaF3 (murine pro-B), retroviral pMXs-IRES-Blasticidin, selected for IL-3 independence
# Sequence (P00533 with tags, fused parts or gaps INS773NPH): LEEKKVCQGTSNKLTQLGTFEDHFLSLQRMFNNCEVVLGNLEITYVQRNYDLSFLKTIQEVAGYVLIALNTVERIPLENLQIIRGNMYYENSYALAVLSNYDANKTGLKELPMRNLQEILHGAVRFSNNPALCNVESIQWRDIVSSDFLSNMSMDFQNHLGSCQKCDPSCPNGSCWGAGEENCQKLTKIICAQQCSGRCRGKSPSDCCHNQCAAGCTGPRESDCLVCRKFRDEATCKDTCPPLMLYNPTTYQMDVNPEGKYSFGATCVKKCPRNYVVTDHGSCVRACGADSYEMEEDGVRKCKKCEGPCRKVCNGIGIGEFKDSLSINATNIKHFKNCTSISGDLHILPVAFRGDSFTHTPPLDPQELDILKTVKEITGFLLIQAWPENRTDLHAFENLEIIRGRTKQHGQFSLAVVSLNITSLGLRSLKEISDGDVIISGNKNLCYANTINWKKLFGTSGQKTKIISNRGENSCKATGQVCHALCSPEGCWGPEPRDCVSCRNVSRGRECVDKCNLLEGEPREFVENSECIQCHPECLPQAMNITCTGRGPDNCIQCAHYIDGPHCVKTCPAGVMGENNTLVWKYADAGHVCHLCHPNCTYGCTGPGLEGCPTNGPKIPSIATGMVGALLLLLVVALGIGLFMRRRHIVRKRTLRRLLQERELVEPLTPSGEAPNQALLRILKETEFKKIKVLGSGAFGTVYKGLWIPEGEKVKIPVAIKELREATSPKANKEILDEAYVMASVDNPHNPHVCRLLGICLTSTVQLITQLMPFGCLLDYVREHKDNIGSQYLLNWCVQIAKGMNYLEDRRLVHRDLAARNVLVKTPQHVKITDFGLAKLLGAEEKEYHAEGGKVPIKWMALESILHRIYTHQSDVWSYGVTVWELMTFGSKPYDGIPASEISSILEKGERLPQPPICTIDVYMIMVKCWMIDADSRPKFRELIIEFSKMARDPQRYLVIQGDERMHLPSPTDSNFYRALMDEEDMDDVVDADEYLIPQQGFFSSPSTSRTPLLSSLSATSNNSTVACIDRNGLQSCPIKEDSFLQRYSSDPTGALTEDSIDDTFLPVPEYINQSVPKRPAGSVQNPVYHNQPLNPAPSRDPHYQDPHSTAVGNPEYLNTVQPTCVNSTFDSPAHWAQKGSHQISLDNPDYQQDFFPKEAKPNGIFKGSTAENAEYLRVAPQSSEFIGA
# PROTOCOL DESCRIPTION: Assay for cell proliferation (BaF3 transformants, CellTiterGlo), Activity for Inhibiting EGFR
# Format: cell-based
# CONDITION DESCRIPTION: Table A (Example 2), potency code; 3 days drug
Listed compounds paired with reported IC50

[[record]]
compound = "C=CC(=O)Nc1cc2c(Nc3ccc4c(cnn4Cc4cccc(F)c4)c3)ncnc2cc1C#CC(C)(C)N1CCN(C)CC1 [compound 9]"
tested_target = "EGFR NPH (Homo sapiens, UniProt P00533, INS773NPH)"
measurement = "0.03 to 0.05 µM"


Query block: Record C=CC(=O)Nc1cc2c(Nc3ccc4c(cnn4Cc4cccc(F)c4)c3)ncnc2cc1OCCN(C)C [compound 10] : what is its IC50 with EGFR NPH (Homo sapiens, UniProt P00533, INS773NPH)?
Result block: 0.03 to 0.05 µM

Query block: I'm curious: which IC50 was measured for C=CC(=O)Nc1cc2c(Nc3ccc4c(cnn4Cc4cccc(F)c4)c3)ncnc2cc1OCCN1CCCCC1 [compound 8] tested on EGFR NPH (Homo sapiens, UniProt P00533, INS773NPH)?
Result block: 0.03 to 0.05 µM

Query block: Lab note: need IC50 for C=CC(=O)Nc1cc2c(Nc3ccc4c(cnn4Cc4cccc(F)c4)c3)ncnc2cc1OCCN1CCOCC1 [compound 3] on EGFR NPH (Homo sapiens, UniProt P00533, INS773NPH), anyone have it?
Result block: 0.01 to 0.02 µM

----------
Reported IC50 is given for each of the following molecules.
# TESTED TARGET: HER2 YVMA (Homo sapiens, UniProt P04626, INS775YVMA)
# Construct: expressed in transfected cells; host or cells: BaF3 (murine pro-B) transformants
# Sequence (P04626 with tags, fused parts or gaps INS775YVMA): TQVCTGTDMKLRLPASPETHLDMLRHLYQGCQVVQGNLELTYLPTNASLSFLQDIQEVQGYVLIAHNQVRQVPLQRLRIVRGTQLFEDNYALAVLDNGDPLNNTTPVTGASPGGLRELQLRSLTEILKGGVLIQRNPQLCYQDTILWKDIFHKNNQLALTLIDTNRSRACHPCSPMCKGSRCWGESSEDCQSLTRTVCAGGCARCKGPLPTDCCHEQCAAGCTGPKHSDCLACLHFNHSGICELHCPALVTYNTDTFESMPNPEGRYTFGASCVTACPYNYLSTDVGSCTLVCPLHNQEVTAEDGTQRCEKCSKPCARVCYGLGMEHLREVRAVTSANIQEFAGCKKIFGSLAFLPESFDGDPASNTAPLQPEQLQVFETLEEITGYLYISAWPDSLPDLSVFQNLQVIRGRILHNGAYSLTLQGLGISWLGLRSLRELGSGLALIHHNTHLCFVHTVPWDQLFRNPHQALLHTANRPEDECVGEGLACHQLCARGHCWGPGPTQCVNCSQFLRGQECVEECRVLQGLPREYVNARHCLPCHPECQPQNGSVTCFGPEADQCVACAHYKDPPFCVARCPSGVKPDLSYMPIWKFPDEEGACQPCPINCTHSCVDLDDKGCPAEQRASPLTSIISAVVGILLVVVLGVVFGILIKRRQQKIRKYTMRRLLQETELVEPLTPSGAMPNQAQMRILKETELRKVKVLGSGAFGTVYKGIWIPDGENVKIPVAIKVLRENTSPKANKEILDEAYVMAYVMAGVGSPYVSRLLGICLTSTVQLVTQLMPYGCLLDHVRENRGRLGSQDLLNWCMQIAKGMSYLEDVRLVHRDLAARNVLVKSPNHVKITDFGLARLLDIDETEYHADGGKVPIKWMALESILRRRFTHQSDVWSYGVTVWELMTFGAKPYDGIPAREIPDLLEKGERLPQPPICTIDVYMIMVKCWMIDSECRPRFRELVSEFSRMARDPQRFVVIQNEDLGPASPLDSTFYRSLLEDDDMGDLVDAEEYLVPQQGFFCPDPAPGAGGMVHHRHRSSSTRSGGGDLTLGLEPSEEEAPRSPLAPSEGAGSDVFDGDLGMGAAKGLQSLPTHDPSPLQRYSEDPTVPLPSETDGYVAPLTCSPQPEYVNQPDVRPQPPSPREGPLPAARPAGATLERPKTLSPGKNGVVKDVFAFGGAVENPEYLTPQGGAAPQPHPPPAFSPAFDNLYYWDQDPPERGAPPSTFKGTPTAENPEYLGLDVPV
# PROTOCOL DESCRIPTION: Assay for cell proliferation (BaF3 transformants, CellTiterGlo), Activity for Inhibiting HER2
# Format: cell-based
# CONDITION DESCRIPTION: Table B, potency code; 3 days drug

Record excerpt, results attached:
[[record]]
structure_string = "C=CC(=O)Nc1cc2c(Nc3ccc4c(cnn4Cc4cccc(F)c4)c3)ncnc2cc1OCCN1CCOCC1"
measurement = "20 to 30 nM"

[[record]]
structure_string = "C=CC(=O)Nc1cc2c(Nc3ccc4c(cnn4Cc4cccc(F)c4)c3)ncnc2cc1OCCN(C)C"
measurement = "50 to 100 nM"

[[record]]
structure_string = "C=CC(=O)Nc1cc2c(Nc3ccc4c(cnn4Cc4cccc(F)c4)c3)ncnc2cc1OCCN1CCCCC1"
measurement = "100 to 200 nM"


As a next step, examine the molecule that follows.
Query block: Give its IC50 value. Item: `C=CC(=O)Nc1cc2c(Nc3ccc4c(cnn4Cc4cccc(F)c4)c3)ncnc2cc1C#CC(C)(C)N1CCN(C)CC1`
Result block: 50 to 100 nM

----------
# TESTED TARGET: HER2 WT (Homo sapiens, UniProt P04626)
# Construct: endogenous in cells; host or cells: BT474
# Sequence (P04626 23-1255): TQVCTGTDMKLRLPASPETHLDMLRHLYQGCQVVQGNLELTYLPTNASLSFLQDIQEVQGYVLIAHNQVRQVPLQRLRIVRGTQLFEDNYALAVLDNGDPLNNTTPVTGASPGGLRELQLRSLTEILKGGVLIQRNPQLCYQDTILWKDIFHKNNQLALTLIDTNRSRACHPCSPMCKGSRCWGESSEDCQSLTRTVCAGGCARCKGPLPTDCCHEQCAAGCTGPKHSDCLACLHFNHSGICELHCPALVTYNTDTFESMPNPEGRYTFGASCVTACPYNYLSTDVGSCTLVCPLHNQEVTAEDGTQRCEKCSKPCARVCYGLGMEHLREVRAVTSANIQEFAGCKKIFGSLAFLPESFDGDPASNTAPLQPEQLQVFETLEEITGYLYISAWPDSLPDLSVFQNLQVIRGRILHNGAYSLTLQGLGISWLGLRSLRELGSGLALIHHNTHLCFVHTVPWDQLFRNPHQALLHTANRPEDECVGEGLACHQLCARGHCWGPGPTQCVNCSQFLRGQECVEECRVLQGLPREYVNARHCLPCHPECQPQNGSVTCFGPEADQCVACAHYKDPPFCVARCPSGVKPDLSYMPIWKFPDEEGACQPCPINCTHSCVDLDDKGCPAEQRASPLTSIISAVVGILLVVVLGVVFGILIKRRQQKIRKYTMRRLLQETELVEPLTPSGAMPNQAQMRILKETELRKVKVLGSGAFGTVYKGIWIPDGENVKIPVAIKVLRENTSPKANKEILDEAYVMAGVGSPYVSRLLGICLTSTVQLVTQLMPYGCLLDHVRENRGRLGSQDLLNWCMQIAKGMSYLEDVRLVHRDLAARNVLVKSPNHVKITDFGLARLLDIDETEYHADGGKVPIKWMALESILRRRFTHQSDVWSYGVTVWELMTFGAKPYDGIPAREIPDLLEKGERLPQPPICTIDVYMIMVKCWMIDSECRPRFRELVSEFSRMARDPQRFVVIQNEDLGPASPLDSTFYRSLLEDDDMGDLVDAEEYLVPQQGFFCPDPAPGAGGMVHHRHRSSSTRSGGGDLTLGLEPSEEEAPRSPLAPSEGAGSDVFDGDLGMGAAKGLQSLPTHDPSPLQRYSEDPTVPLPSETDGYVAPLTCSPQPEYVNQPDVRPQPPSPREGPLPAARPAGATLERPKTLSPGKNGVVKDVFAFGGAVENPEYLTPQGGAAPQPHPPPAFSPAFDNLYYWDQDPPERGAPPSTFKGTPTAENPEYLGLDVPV
# PROTOCOL DESCRIPTION: Assay for cell proliferation (CellTiterGlo), Activity for Inhibiting HER2
# Type: cell-based
# CONDITION DESCRIPTION: Table B (Example 2), potency code; 3 days drug; read-out: HER2 WT
READOUT LABEL: IC50

[[record]]
compound = "C=CC(=O)Nc1cc2c(Nc3ccc4c(cnn4Cc4cccc(F)c4)c3)ncnc2cc1NCCN1CCOCC1 [compound 5]"
readout_label = "IC50"
measurement = "0.005 to 0.01 µM"

[[record]]
compound = "C=CC(=O)Nc1cc2c(Nc3ccc4c(cnn4Cc4cccc(F)c4)c3)ncnc2cc1N(C)CCCN1CC2CC1CO2 (stereo not drawn) [compound 7]"
readout_label = "IC50"
measurement = "0.01 to 0.02 µM"


Query block: Which IC50 value belongs to C=CC(=O)Nc1cc2c(Nc3ccc4c(cnn4Cc4cccc(F)c4)c3)ncnc2cc1OCCN1CCCCC1 [compound 8] ?
Result block: 0.005 to 0.01 µM

----------
# TESTED TARGET: EGFR NPH (Homo sapiens, UniProt P00533, INS773NPH)
# Construct: expressed in transfected cells; host or cells: BaF3 (murine pro-B), retroviral pMXs-IRES-Blasticidin, selected for IL-3 independence
# PROTOCOL DESCRIPTION: Assay for cell proliferation (BaF3 transformants, CellTiterGlo), Activity for Inhibiting EGFR
# Format: cell-based
# CONDITION DESCRIPTION: Table A, potency code; 3 days drug
READOUT LABEL: IC50

[[record]]
structure_string = "C=CC(=O)Nc1cc2c(Nc3ccc4c(cnn4Cc4cccc(F)c4)c3)ncnc2cc1OCCN1CCCCC1"
measurement = "30 to 50 nM"

[[record]]
structure_string = "C=CC(=O)Nc1cc2c(Nc3ccc4c(cnn4Cc4cccc(F)c4)c3)ncnc2cc1OCCN(C)C"
measurement = "30 to 50 nM"

[[record]]
structure_string = "C=CC(=O)Nc1cc2c(Nc3ccc4c(cnn4Cc4cccc(F)c4)c3)ncnc2cc1C#CC(C)(C)N1CCN(C)CC1"
measurement = "30 to 50 nM"


Moving on to the next compound.
Query block: Report IC50 for `C=CC(=O)Nc1cc2c(Nc3ccc4c(cnn4Cc4cccc(F)c4)c3)ncnc2cc1OCCN1CCOCC1` please.
Result block: 10 to 20 nM

----------
# TESTED TARGET: EGFR WT (Homo sapiens, UniProt P00533)
# Construct: endogenous in cells; host or cells: A431 (+H292)
# PROTOCOL DESCRIPTION: Assay for cell proliferation (CellTiterGlo), Activity for Inhibiting EGFR
# Assay type: cell-based
# CONDITION DESCRIPTION: Table A (Example 2), potency code; 3 days drug
pIC50: −log10 of the molar value.
READOUT LABEL: pIC50

Some compounds with recorded pIC50:
[[record]]
compound = "C=CC(=O)Nc1cc2c(Nc3ccc4c(cnn4Cc4cccc(F)c4)c3)ncnc2cc1N(C)CCCN1CC2CC1CO2 (stereo not shown)"
measurement = "6.30 to 6.52"

[[record]]
compound = "C=CC(=O)Nc1cc2c(Nc3ccc4c(cnn4Cc4cccc(F)c4)c3)ncnc2cc1OCCN1CCOCC1"
measurement = "6.52 to 6.70"

[[record]]
compound = "C=CC(=O)Nc1cc2c(Nc3ccc4c(cnn4Cc4cccc(F)c4)c3)ncnc2cc1N(C)CCN1CCOCC1"
measurement = "< 6.00"

[[record]]
compound = "C=CC(=O)Nc1cc2c(Nc3ccc4c(cnn4Cc4cccc(F)c4)c3)ncnc2cc1C#CC(C)(C)N1CCN(C)CC1"
measurement = "6.30 to 6.52"

[[record]]
compound = "C=CC(=O)Nc1cc2c(Nc3ccc4c(cnn4Cc4cccc(F)c4)c3)ncnc2cc1OCCN(C)C"
measurement = "6.70 to 7.00"


Query block: pIC50 for `C=CC(=O)Nc1cc2c(Nc3ccc4c(cnn4Cc4cccc(F)c4)c3)ncnc2cc1N(C)CCN(C)C` ?
Result block: 6.00 to 6.30

Query block: Endpoint output: pIC50 of `C=CC(=O)Nc1cc2c(Nc3ccc4c(cnn4Cc4cccc(F)c4)c3)ncnc2cc1OCCN1CCCCC1` . Value?
Result block: 6.70 to 7.00
